# MEASUREMENT_DESCRIPTION: Plasma pharmacokinetics
# Format: in vivo, human
# SETTINGS: human, plasma, 10 mg, t 1/2, Mean ± SD, single dose, C1D1, intermittent arm (n = 4)
MEASURED_METRIC: half-life (h)
One number for each entry, in h.

Problem: Look up half-life: CNC(=O)c1cccc2cc(Oc3ccnc4cc(OCC5(N)CC5)c(OC)cc34)ccc12 [Lucitanib]
Solution: 24.8

---

# MEASUREMENT_DESCRIPTION: Plasma pharmacokinetics
# Type: in vivo, human
# SETTINGS: human, plasma, oral, 10 mg, MRT, GeoMean(%CVb), single dose, C1D1, continuous arm (n = 5)
MEASURED_METRIC: MRT (h)
Answers are plain numbers, in h.

Problem: Look up MRT: `CNC(=O)c1cccc2cc(Oc3ccnc4cc(OCC5(N)CC5)c(OC)cc34)ccc12`
Solution: 32.2
